# Subject of test: delta-5-desaturase (Homo sapiens, UniProt O60427)
# Construct: endogenous in cells; host or cells: HepG2
# Sequence (O60427 whole entry): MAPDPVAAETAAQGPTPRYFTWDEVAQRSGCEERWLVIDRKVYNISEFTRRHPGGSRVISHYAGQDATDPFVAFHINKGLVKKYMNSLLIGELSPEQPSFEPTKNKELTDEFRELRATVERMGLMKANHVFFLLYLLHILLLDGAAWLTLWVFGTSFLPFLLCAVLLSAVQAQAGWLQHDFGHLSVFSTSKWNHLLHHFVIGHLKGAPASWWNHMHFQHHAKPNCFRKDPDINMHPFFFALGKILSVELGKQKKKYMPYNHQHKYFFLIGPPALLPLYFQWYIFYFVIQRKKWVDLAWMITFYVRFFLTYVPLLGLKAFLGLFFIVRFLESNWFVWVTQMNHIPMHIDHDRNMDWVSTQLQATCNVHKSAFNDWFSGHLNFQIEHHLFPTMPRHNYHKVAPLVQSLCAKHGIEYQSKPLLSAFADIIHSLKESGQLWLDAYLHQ
# Experiment description: Delta-5-desaturase inhibitory activity using HepG2 cell
# Type: cell-based
# Applied conditions: test compound 1 μM
Let's look at some compounds and their measured inhibition at 1 µM.

[
  {
    "Compound": "O=C1CCc2c(nc(CCC(F)(F)F)n(-c3ccc(OCC(F)(F)F)cc3)c2=O)N1 [Example 39]",
    "Subject of test": "delta-5-desaturase (Homo sapiens, UniProt O60427)",
    "inhibition at 1 µM (%)": 98
  },
  {
    "Compound": "COCCOc1nccc2c(=O)n(-c3ccc(OCC(F)(F)F)cc3)c(OCCOC)nc12 [Example 35]",
    "Subject of test": "delta-5-desaturase (Homo sapiens, UniProt O60427)",
    "inhibition at 1 µM (%)": 91
  },
  {
    "Compound": "CCSc1nc2c(=O)n(C)ccc2c(=O)n1-c1ccc(OCC(F)(F)F)cc1 [Example 36]",
    "Subject of test": "delta-5-desaturase (Homo sapiens, UniProt O60427)",
    "inhibition at 1 µM (%)": 92
  },
  {
    "Compound": "CCSc1nc2[nH]c(=O)ccc2c(=O)n1-c1ccc(OCC(F)(F)F)cc1 [Example 6]",
    "Subject of test": "delta-5-desaturase (Homo sapiens, UniProt O60427)",
    "inhibition at 1 µM (%)": 101
  },
  {
    "Compound": "CCOc1nc2c(c(=O)n1-c1ccc(OCC(F)(F)F)cc1)CCC(=O)N2 [Example 23]",
    "Subject of test": "delta-5-desaturase (Homo sapiens, UniProt O60427)",
    "inhibition at 1 µM (%)": 93
  },
  {
    "Compound": "CCSc1nc2c(OC)nccc2c(=O)n1-c1ccc(OCC(F)(F)F)cc1 [Example 33]",
    "Subject of test": "delta-5-desaturase (Homo sapiens, UniProt O60427)",
    "inhibition at 1 µM (%)": 93
  },
  {
    "Compound": "CCOc1nc2c(OCCOC)nccc2c(=O)n1-c1ccc(OCC(F)(F)F)cc1 [Example 34]",
    "Subject of test": "delta-5-desaturase (Homo sapiens, UniProt O60427)",
    "inhibition at 1 µM (%)": 93
  },
  {
    "Compound": "CCOc1nc2nc(OC)ccc2c(=O)n1-c1ccc(OCC(F)(F)F)cc1 [Example 4]",
    "Subject of test": "delta-5-desaturase (Homo sapiens, UniProt O60427)",
    "inhibition at 1 µM (%)": 96
  },
  {
    "Compound": "O=C1CCc2c(nc(OCC(F)(F)F)n(-c3ccc(OCC(F)(F)F)cc3)c2=O)N1 [Example 22]",
    "Subject of test": "delta-5-desaturase (Homo sapiens, UniProt O60427)",
    "inhibition at 1 µM (%)": 101
  },
  {
    "Compound": "COc1ccc2c(=O)n(-c3ccc(OCC(F)(F)F)cc3)c(SC)nc2n1 [Example 2]",
    "Subject of test": "delta-5-desaturase (Homo sapiens, UniProt O60427)",
    "inhibition at 1 µM (%)": 107
  },
  {
    "Compound": "CCOc1nc2c(=O)[nH]ccc2c(=O)n1-c1ccc(OCC(F)(F)F)cc1 [Example 32]",
    "Subject of test": "delta-5-desaturase (Homo sapiens, UniProt O60427)",
    "inhibition at 1 µM (%)": 88
  },
  {
    "Compound": "CCSc1nc2nc(N)ccc2c(=O)n1-c1ccc(OCC(F)(F)F)cc1 [Example 26]",
    "Subject of test": "delta-5-desaturase (Homo sapiens, UniProt O60427)",
    "inhibition at 1 µM (%)": 107
  },
  {
    "Compound": "O=c1ccc2c(=O)n(-c3ccc(OCC(F)(F)F)cc3)c(OCC(F)F)nc2[nH]1 [Example 16]",
    "Subject of test": "delta-5-desaturase (Homo sapiens, UniProt O60427)",
    "inhibition at 1 µM (%)": 102
  },
  {
    "Compound": "CCOc1nc2[nH]c(=O)ccc2c(=O)n1-c1ccc(OCC(F)(F)F)cc1 [Example 9]",
    "Subject of test": "delta-5-desaturase (Homo sapiens, UniProt O60427)",
    "inhibition at 1 µM (%)": 97
  },
  {
    "Compound": "O=c1ccc2c(=O)n(-c3ccc(OCC(F)(F)F)cc3)c(OCC(F)(F)F)nc2[nH]1 [Example 11]",
    "Subject of test": "delta-5-desaturase (Homo sapiens, UniProt O60427)",
    "inhibition at 1 µM (%)": 98
  },
  {
    "Compound": "CCSc1nc2nc(OC)ccc2c(=O)n1-c1ccc(OCC(F)(F)F)cc1 [Example 1]",
    "Subject of test": "delta-5-desaturase (Homo sapiens, UniProt O60427)",
    "inhibition at 1 µM (%)": 101
  },
  {
    "Compound": "CCSc1nc2c(ccc(=O)n2C)c(=O)n1-c1ccc(OCC(F)(F)F)cc1 [Example 8]",
    "Subject of test": "delta-5-desaturase (Homo sapiens, UniProt O60427)",
    "inhibition at 1 µM (%)": 103
  }
]

----------
Let's look at some molecules and their measured inhibition at 10 µM.
# Subject of test: delta-5-desaturase (Rattus norvegicus)
# Construct: a rat liver microsome fraction (10 μl) diluted to 3 mg/ml with a microsome buffer; from tissue; host or cells: rat liver microsome fraction
# Sequence (Q920R3 whole entry): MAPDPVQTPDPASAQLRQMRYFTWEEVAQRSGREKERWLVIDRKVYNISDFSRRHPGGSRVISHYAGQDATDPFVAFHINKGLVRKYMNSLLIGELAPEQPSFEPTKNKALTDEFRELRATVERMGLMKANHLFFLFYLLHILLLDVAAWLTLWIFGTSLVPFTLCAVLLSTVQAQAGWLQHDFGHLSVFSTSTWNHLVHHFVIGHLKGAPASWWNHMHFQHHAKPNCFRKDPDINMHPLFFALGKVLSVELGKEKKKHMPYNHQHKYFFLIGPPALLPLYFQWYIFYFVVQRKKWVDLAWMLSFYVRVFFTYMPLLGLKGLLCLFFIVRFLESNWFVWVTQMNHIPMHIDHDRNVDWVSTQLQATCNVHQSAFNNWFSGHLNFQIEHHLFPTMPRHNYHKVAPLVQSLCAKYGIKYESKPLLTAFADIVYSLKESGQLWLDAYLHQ
# Experiment description: Delta-5-desaturase inhibitory activity using rat liver microsome
# Type: biochemical
# Applied conditions: test compound 10 μM
Result type: inhibition at 10 µM (%)

[
  {
    "Molecule": "CCOc1nc2c(c(=O)n1-c1ccc(OCC(F)(F)F)cc1)CCC(=O)N2",
    "Units": "%",
    "Observed value": 96
  },
  {
    "Molecule": "CCNc1nc2[nH]c(=O)ccc2c(=O)n1-c1ccc(OCC(F)(F)F)cc1",
    "Units": "%",
    "Observed value": 90
  },
  {
    "Molecule": "CCCSc1nc2nc(OC)ccc2c(=O)n1-c1ccc(OCC(F)(F)F)cc1",
    "Units": "%",
    "Observed value": 102
  },
  {
    "Molecule": "COCC(F)(F)COc1nc2[nH]c(=O)ccc2c(=O)n1-c1ccc(OCC(F)(F)F)cc1",
    "Units": "%",
    "Observed value": 103
  },
  {
    "Molecule": "CCSc1nc2c(OC)nccc2c(=O)n1-c1ccc(OCC(F)(F)F)cc1",
    "Units": "%",
    "Observed value": 101
  },
  {
    "Molecule": "CCSc1nc2c(=O)n(C)ccc2c(=O)n1-c1ccc(OCC(F)(F)F)cc1",
    "Units": "%",
    "Observed value": 101
  },
  {
    "Molecule": "CCSc1nc2[nH]c(=O)cnc2c(=O)n1-c1ccc(OCC(F)(F)F)cc1",
    "Units": "%",
    "Observed value": 95
  },
  {
    "Molecule": "CCOc1nc2c(=O)[nH]ccc2c(=O)n1-c1ccc(OCC(F)(F)F)cc1",
    "Units": "%",
    "Observed value": 96
  },
  {
    "Molecule": "CS(=O)(=O)CCCOc1nc2[nH]c(=O)ccc2c(=O)n1-c1ccc(OCC(F)(F)F)cc1",
    "Units": "%",
    "Observed value": 97
  },
  {
    "Molecule": "CCSc1nc2nc(C(N)=O)ccc2c(=O)n1-c1ccc(OCC(F)(F)F)cc1",
    "Units": "%",
    "Observed value": 97
  },
  {
    "Molecule": "O=c1[nH]ccc2c(=O)n(-c3ccc(OCC(F)(F)F)cc3)c(OCC(F)(F)F)nc12",
    "Units": "%",
    "Observed value": 96
  },
  {
    "Molecule": "CSc1nc2c(c(=O)n1-c1ccc(OCC(F)(F)F)cc1)CCC(=O)N2",
    "Units": "%",
    "Observed value": 97
  },
  {
    "Molecule": "O=c1ccc2c(=O)n(-c3ccc(OCC(F)(F)F)cc3)c(OC3CCC(F)(F)CC3)nc2[nH]1",
    "Units": "%",
    "Observed value": 104
  },
  {
    "Molecule": "CCSc1nc2c(c(=O)n1-c1ccc(OCC(F)(F)F)cc1)CCNC2=O",
    "Units": "%",
    "Observed value": 92
  },
  {
    "Molecule": "CCSc1nc2c(c(=O)n1-c1ccc(OCC(F)(F)F)cc1)CCC(=O)N2",
    "Units": "%",
    "Observed value": 101
  },
  {
    "Molecule": "CCSc1nc2nc(N)ccc2c(=O)n1-c1ccc(OCC(F)(F)F)cc1",
    "Units": "%",
    "Observed value": 102
  },
  {
    "Molecule": "COc1ccc2c(=O)n(-c3ccc(OCC(F)(F)F)cc3)c(OCC(F)(F)F)nc2n1",
    "Units": "%",
    "Observed value": 101
  }
]
